Test system: c-Abl (mouse);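 further: 11-residue human phosphosite peptides and single-mutation variants displayed on the E. coli surface, counted by deep sequencing, each peptide's frequency after selection divided by its frequency in the unselected input library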;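 further: frequency after pTyr selection over input frequency; kinase dosed for 20-30% of maximal phosphorylation in three min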
method-summary: phosphorylation enrichment, bacterial display (enrichment ratio); higher = better substrate or ligand; peptides without Tyr show the background
property-measured: phosphorylation enrichment

# residue-sequence, target-or-test-system, property-measured, measured-number
measured = [
    ("SKNFTYIWWLN [PSG4_Y271_YF]", "c-Abl (mouse)", "phosphorylation enrichment", 0.78),
    ("KNEVFYQCPDQ [FBXO3_Y223]", "c-Abl (mouse)", "phosphorylation enrichment", 7.94),
    ("EEALYYLTRVE [SET_Y119_H118Y]", "c-Abl (mouse)", "phosphorylation enrichment", 1.53),
    ("NKVKFYIPFMN [NCR1_Y84_D87Y_YF]", "c-Abl (mouse)", "phosphorylation enrichment", 0.699),
    ("SIKDKYVTAVY [KCNH2_Y611_L615V]", "c-Abl (mouse)", "phosphorylation enrichment", 0.441),
    ("LDTIQYSKHPP [SQSTM1_Y433]", "c-Abl (mouse)", "phosphorylation enrichment", 0.75),
    ("HSGVSYFINLC [IGF2R_Y2024_N2020S_YF]", "c-Abl (mouse)", "phosphorylation enrichment", 1.21),
    ("QERPEYWDQET [HLA-A_Y83_G80R]", "c-Abl (mouse)", "phosphorylation enrichment", 1.14),
    ("CNPRRYPVLMS [OR2T1_Y182_L180R]", "c-Abl (mouse)", "phosphorylation enrichment", 0.59),
    ("EQKKYYNAMKK [SCN5A_Y1495]", "c-Abl (mouse)", "phosphorylation enrichment", 0.519),
    ("PVLSLYASGRT [ACTA1_Y145_A140P]", "c-Abl (mouse)", "phosphorylation enrichment", 1.31),
    ("EPNSRYTYKLE [USH2A_Y3745]", "c-Abl (mouse)", "phosphorylation enrichment", 0.753),
    ("MMVGAYSTLEG [ECPAS_Y470]", "c-Abl (mouse)", "phosphorylation enrichment", 0.57),
    ("LSVISYDLGMF [GBA3_Y174_M172I]", "c-Abl (mouse)", "phosphorylation enrichment", 0.961),
    ("AVDDKYSRREE [SART1_Y685_I681V]", "c-Abl (mouse)", "phosphorylation enrichment", 0.478),
    ("NDFGNYNQQPS [HNRNPA2B1_Y306]", "c-Abl (mouse)", "phosphorylation enrichment", 0.74),
    ("TTEHIYGDNFF [UBA7_Y524]", "c-Abl (mouse)", "phosphorylation enrichment", 0.754),
    ("GYKVRYATGSI [FGFR1_Y210_W213G]", "c-Abl (mouse)", "phosphorylation enrichment", 0.478),
    ("ACDALYPPGPP", "c-Abl (mouse)", "phosphorylation enrichment", 0.566),
    ("KDQGIYEDFVE [MYL6_Y86_T85I_YF]", "c-Abl (mouse)", "phosphorylation enrichment", 0.932),
]
